tested system: Human HER3, endogenous, on human cancer cell lines (SK-Br-3, MCF7, BT-474) (human, UniProt P21860 20-1342)
Sequence (P21860 20-1342): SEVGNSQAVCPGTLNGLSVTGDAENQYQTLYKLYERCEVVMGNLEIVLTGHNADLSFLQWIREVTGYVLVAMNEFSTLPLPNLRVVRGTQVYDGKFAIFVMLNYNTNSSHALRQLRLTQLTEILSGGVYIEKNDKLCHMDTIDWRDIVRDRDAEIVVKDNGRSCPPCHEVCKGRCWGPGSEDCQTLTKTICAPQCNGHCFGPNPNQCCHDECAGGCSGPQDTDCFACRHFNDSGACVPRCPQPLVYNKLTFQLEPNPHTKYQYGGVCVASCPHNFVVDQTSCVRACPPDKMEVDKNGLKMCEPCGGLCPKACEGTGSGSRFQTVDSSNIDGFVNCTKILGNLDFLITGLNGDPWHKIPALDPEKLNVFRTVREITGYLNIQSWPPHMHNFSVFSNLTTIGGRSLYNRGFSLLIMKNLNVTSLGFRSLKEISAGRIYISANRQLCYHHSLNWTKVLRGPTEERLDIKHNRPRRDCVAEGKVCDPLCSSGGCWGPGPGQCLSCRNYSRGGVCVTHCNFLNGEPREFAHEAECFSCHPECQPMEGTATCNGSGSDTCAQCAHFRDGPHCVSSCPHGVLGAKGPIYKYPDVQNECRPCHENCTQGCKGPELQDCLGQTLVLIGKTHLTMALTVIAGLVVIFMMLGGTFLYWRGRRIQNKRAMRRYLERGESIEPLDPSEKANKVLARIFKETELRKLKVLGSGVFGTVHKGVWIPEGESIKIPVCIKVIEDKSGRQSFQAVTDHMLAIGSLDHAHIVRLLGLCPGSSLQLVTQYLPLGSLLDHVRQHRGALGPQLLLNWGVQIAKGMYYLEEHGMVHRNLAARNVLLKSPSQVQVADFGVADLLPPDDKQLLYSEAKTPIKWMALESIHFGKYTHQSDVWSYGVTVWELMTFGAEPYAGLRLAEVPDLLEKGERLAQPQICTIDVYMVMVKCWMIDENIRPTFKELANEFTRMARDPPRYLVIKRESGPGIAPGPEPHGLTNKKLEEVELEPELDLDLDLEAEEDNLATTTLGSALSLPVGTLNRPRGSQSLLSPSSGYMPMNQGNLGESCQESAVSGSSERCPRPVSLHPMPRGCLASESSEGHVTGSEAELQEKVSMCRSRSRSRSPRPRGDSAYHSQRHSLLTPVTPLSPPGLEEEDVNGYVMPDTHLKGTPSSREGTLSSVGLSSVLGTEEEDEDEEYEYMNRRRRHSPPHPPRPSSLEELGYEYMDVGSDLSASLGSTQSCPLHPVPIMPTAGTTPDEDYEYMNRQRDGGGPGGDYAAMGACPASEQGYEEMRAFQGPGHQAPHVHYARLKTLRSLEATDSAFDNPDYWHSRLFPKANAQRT
assay summary: cell-based or functional assay
SK-Br-3 proliferation % inhibition below 40% gives 0.0; SK-Br-3 proliferation % inhibition at or above it gives 1.0.

1. MOR13871 (antibody, human IgG1, kappa, V domains shown, tested as IgG) VH: QVQLVQSGAEVKKPGESLKISCKGSGYSFSNYWIAWVRQMPGKGLEWMGIIYPGSSDTIYSPSFQGQVTISADKSISTAYLQWSSLKASDTAMYYCARVHIIQPPSAWSYNAMDVWGQGTLVTVSS VL: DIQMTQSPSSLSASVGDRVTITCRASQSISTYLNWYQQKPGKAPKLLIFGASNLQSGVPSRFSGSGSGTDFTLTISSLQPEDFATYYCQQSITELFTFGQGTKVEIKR ... 0.0
2. MOR13756 (antibody, human IgG1, kappa, V domains shown, tested as IgG) VH: QVQLVQSGAEVKKPGESLKISCKGSGYSFTLTWVAWVRQMPGKGLEWMGIIYPGQSDTIYSPSFQGQVTISADKSISTAYLQWSSLKASDTAMYYCARVHIIQPPSAWSYNAMDVWGQGTLVTVSS VL: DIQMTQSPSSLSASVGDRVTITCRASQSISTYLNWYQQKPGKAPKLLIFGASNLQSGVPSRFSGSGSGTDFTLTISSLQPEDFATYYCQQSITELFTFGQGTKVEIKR ... 1.0
3. MOR13766 (antibody, human IgG1, kappa, V domains shown, tested as IgG) VH: QVQLVQSGAEVKKPGESLKISCKGSGYSFTTTWVAWVRQMPGKGLEWMGIIYPGSSDTIYSPSFQGQVTISADKSISTAYLQWSSLKASDTAMYYCARVHIIQPPSAWSYNAMDVWGQGTLVTVSS VL: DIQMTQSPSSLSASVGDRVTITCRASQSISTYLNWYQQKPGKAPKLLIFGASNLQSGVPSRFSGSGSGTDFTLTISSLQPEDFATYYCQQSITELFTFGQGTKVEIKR ... 1.0
4. MOR13765 (antibody, human IgG1, kappa, V domains shown, tested as IgG) VH: QVQLVQSGAEVKKPGESLKISCKGSGYSFTGSWVAWVRQMPGKGLEWMGIIYPGTSDTIYSPSFQGQVTISADKSISTAYLQWSSLKASDTAMYYCARVHIIQPPSAWSYNAMDVWGQGTLVTVSS VL: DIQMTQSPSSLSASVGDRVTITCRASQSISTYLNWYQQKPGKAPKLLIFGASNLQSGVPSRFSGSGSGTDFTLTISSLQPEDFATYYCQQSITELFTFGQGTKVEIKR ... 1.0
